# Tested on: NCI/ADR-RES ovarian
# Assay notes: NCI-60 one-dose screen, 48 h
# Run parameters: 10 µM unless noted
This is part of a sample that, as a whole, favours compounds with a hit. Of some 83,000 tested, about 20% had one in any assay. The source made the active and inactive calls. The calls were made as follows: active = growth percent below 10; inactive = the rest.
Entry note: the call must match one of Yes for active, No for inactive

# Smiles code, Assay system, Group label
rows = [
    ("CC1=C(C)C(=O)C(Nc2ccc(C)cc2)=C(Br)C1=O", "NCI/ADR-RES ovarian", "No"),
    ("COc1ccc(OC)c(CCn2cncc2-c2c[nH]c3ccc(Cl)cc23)c1", "NCI/ADR-RES ovarian", "No"),
    ("CCN(CC)c1ccc(/C=N/NC(=O)c2ccc(NS(C)(=O)=O)cc2)c(O)c1", "NCI/ADR-RES ovarian", "No"),
    ("C#Cc1nc(/C=C/CCCCCCC(=O)NO)cs1", "NCI/ADR-RES ovarian", "No"),
]

Exam item: Can you look up the reported call for N#Cc1cccc(-c2cc(-c3ccc4c(c3)OCCO4)[nH]n2)c1 for me?
Marked response: No

Exam item: Can you look up the reported call for CCCCCC[n+]1ccc(SCC(=O)n2ccc3ccccc32)c2ccccc21 for me?
Marked response: No

Exam item: Can you look up the reported call for CN1CCN(c2ccc(C(=O)/C=C/c3cc(F)cc(C(F)(F)F)c3)cc2)CC1 for me?
Marked response: No

Exam item: Can you look up the reported call for CC[C@H](CC[C@@H](C)[C@H]1CC[C@H]2[C@@H]3CC(=O)C4=CC(=O)/C(=C/c5ccc([N+](=O)[O-])cc5)C[C@]4(C)[C@H]3CC[C@]12C)C(C)C for me?
Marked response: No

Exam item: Can you look up the reported call for Clc1ccc2[nH]cc(-c3nn4cc(-c5ccncc5)nc4s3)c2c1 for me?
Marked response: Yes

Exam item: Can you look up the reported call for COc1cccc(N2CCN(C3=C(Cl)C(=O)c4ncccc4C3=O)CC2)c1 for me?
Marked response: No

Exam item: Can you look up the reported call for COc1cc(NC(=O)Nc2cccc(-c3cc(=O)c4c(OC)c(OC)c(OC)cc4o3)c2)cc(OC)c1OC for me?
Marked response: No

Exam item: Can you look up the reported call for CN1CCN(Cc2ccc(NC(=O)c3cncc(C#Cc4cnc5ccc(OCCCS(C)(=O)=O)nn45)c3)cc2C(F)(F)F)CC1 for me?
Marked response: No

Exam item: Can you look up the reported call for O=C1C(N2CCN(c3ccccc3)CC2)=C(Cl)C(=O)c2ncccc21 for me?
Marked response: No

Exam item: Can you look up the reported call for Cn1cc(-c2nc(N)nnc2-c2c[nH]c3ccc(Br)cc23)c2cc(F)ccc21 for me?
Marked response: No

Exam item: Can you look up the reported call for O=C(Nc1cccc(C(F)(F)F)c1)N1CCN(c2cc(-c3cn(-c4ccccc4)nc3-c3cccc(O)c3)ccn2)CC1 for me?
Marked response: No

Exam item: Can you look up the reported call for O=c1c2cc(-c3ccc(F)cc3F)ccc2n(O)c(=O)n1-c1cccc(C(F)(F)F)c1 for me?
Marked response: Yes

----------
# Tested on: HS 578T breast
# Assay notes: NCI-60 one-dose screen, 48 h (100 = growth as untreated, 0 = no growth, -100 = all killed)
# Run parameters: 10 µM unless noted
This is part of a sample that, as a whole, favours compounds with a hit. Of some 83,000 tested, about 20% had one in any assay.
Class key for growth values: low end = under 40%, middle = from 40% up to 90%, high end = 90% and over

# Molecule, Assay system, Group label
measured = [
    ("C[C@H]1OCC2(CCN(c3cnc(C(=O)Nc4cc(F)cc5cccnc45)cn3)CC2)[C@H]1N", "HS 578T breast", "middle"),
    ("CCOC(=O)c1cccnc1Nc1ccc(NC(=O)Nc2ccc(Cl)c(C(F)(F)F)c2)cc1", "HS 578T breast", "middle"),
    ("C#CCOc1ccccc1/C=N/Nc1nc(-c2ccc(Cl)cc2)cs1", "HS 578T breast", "high end"),
    ("Cc1ccc2c(n1)C(=O)C(Cl)=C(Nc1ccc(C(C)C)cc1)C2=O", "HS 578T breast", "middle"),
]

Exam item: In plain terms, what class is CNCCN(C)c1ccc(Nc2cc(NC3CC3)n3ncc(C#N)c3n2)cc1NC(C)=O ?
Marked response: low end

Exam item: In plain terms, what class is O=S(=O)(NCCCNc1nccc(-c2[nH]c(-c3ccccc3)nc2-c2ccc(F)c(O)c2)n1)c1ccc(C(F)(F)F)cc1 ?
Marked response: middle

Exam item: In plain terms, what class is Cc1cc(=O)oc2cc(OCCCOc3ccc(/C=C/C(=O)Nc4ccc(Br)cc4)cc3)ccc12 ?
Marked response: middle

Exam item: In plain terms, what class is O=C1Nc2ccccc2/C1=C/c1ccc(OCC(=O)c2ccccc2)cc1 ?
Marked response: high end

Exam item: In plain terms, what class is N#Cc1c(-c2ccc(F)cc2)cc(-c2c[nH]c3ccccc23)nc1-c1c[nH]c2ccccc12 ?
Marked response: high end

Exam item: In plain terms, what class is N#Cc1c(-c2cccs2)cc(-c2cnccn2)nc1SCC(=O)N/N=C/c1ccc(Cl)cc1 ?
Marked response: high end

Exam item: In plain terms, what class is O=C(CSc1nc2ccccc2c(=O)n1-c1ccc(Cl)cc1)N/N=C/c1ccc(Oc2ccc(Cl)cc2)cc1 ?
Marked response: low end

Exam item: In plain terms, what class is O=C1c2ccccc2C23C(=C(c4cncnc4)c4ccccc42)CCCN13 (stereo unspecified) ?
Marked response: high end

Exam item: In plain terms, what class is C#CCOc1cccc(/C(N)=N/C(N)=N/c2nc3ccccc3s2)c1 ?
Marked response: high end

Exam item: In plain terms, what class is CCc1nnc(NC(=O)c2cc(-c3ccc(Cl)cc3Cl)oc2C)s1 ?
Marked response: middle

Exam item: In plain terms, what class is CCNC(=O)Oc1ccc(/C(=C(/C)c2ccc(Cl)cc2)c2ccc(OCCN3CCCCCC3)cc2)cc1 ?
Marked response: low end

Exam item: In plain terms, what class is Cc1ccsc1[C@H]1c2[nH]c3ccccc3c2C[C@H]2C(=O)N(CCCCCCC(=O)NO)CC(=O)N12 ?
Marked response: middle
